# assaySystem: GlunN1/GluN2A glutamate receptors (Homo sapiens (Human), UniProt Q05586+Q12879)
# Sequence (Q12879 23-1464, other chains not shown): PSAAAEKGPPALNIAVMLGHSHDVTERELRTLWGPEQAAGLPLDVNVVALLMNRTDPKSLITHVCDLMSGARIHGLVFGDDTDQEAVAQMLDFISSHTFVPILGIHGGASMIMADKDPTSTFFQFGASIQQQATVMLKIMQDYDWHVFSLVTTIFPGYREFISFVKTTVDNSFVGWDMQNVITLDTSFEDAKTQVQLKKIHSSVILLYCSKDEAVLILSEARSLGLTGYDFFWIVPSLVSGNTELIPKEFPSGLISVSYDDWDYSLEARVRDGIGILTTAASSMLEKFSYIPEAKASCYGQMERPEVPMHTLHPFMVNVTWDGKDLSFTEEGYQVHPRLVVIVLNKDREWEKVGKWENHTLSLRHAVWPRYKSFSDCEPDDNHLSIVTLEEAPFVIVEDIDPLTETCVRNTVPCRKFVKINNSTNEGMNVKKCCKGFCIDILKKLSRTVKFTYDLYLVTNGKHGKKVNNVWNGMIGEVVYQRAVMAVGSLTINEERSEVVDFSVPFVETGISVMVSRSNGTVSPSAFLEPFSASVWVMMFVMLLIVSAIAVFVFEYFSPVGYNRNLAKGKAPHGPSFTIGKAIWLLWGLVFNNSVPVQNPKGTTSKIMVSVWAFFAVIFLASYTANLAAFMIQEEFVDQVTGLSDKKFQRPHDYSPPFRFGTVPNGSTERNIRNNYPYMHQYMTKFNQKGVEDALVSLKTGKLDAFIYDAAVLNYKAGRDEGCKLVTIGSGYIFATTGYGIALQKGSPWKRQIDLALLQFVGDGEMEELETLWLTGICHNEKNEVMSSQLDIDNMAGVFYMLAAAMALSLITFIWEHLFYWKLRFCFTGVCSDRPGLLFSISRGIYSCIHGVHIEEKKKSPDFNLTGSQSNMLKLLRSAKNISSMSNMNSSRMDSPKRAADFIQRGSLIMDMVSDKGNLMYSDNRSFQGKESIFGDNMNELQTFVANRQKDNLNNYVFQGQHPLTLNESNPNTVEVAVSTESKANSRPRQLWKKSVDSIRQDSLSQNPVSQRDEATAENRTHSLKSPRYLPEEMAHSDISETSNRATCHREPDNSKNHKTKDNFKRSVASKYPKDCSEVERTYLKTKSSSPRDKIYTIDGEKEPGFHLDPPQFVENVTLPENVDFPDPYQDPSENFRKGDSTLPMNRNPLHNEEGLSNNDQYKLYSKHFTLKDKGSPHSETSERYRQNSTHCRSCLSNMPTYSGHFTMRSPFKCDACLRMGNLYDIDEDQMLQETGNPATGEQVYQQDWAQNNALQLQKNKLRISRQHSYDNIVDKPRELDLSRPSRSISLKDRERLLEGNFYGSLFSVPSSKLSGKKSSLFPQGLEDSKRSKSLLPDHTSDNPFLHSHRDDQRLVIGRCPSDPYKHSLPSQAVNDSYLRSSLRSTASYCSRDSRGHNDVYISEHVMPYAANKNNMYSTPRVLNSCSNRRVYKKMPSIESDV
# assayProcedure: Whole-cell patch clamp of mammalian cells (Ionworks Barracuda), positive allosteric modulation, GluN1/GluN2A
# Type: cell-based
# testSettings: HEK293 cells; % potentiation of current elicited with EC20 L-glutamate and 30 μM glycine; read-out: Avg Emax 2A (%)
measurementType: Emax
Note: state the figure and append the unit.

{"columns": ["chemSmiles", "measValue"],
 "data": [
  ["CC[C@]1(O)CC[C@H]2C(=CC[C@@H]3[C@@H]2CC[C@]2(C)[C@@H]([C@H](C)CCC[C@@H](O)C(F)(F)F)CC[C@@H]32)C1", "231%"],
  ["C[C@H](CC[C@](C)(O)C(F)(F)F)[C@H]1CC[C@H]2[C@@H]3CC[C@H]4C[C@](O)(C(F)(F)F)CC[C@]4(C)[C@H]3CC[C@]12C", "663%"],
  ["COC[C@H]1CC[C@](O)(CC[C@@H](C)[C@H]2CC[C@H]3[C@@H]4CC[C@H]5C[C@](O)(C(F)(F)F)CC[C@]5(C)[C@H]4CC[C@]23C)CC1", "74%"],
  ["C[C@H](CCCC1(O)CCC(F)(F)CC1)[C@H]1CC[C@H]2[C@@H]3CC[C@H]4C[C@](O)(C(F)(F)F)CC[C@]4(C)[C@H]3CC[C@]12C", "152%"]
]}

Here's the next entry for you.
q: // returns reported Emax for input `C[C@H](CCC[C@@H](C)O)[C@H]1CC[C@H]2[C@@H]3CC[C@H]4C[C@](O)(C(F)(F)F)CC[C@]4(C)[C@H]3CC[C@]12C`
a: 92.6%
